Attribution: patent US11312692B1

test: Aqueous solubility at pH 1, 4.5 and 6.8 (HPLC concentration, XRPD of solids); format: physicochemical; conditions: simulated gastric fluid, thermodynamic from solid; pH 1 buffer, shaken at ambient temperature
reported_metric: solubility

Quick note, solubility for CC(C)(O)c1cc2oc(-c3ccccc3)nc2cc1N [Compound 1 Form A] landed at ≥ 500 mg/mL

----------
assay: Aqueous solubility at pH 1, 4.5 and 6.8 (HPLC concentration, XRPD of solids); type: physicochemical; settings: aqueous buffer, thermodynamic from solid; pH 6.8 buffer, shaken at ambient temperature
reported_metric: solubility

Given item CC(C)(O)c1cc2oc(-c3ccccc3)nc2cc1N [Compound 1 Form A] , the value recorded as its solubility is ≥ 500 mg/mL
